Values from patent US6172079A

target: benzodiazepine receptor; experiment: Benzodiazepine Receptor Binding Assay; conditions: read-out: BZP-receptor Binding IC50; [3H]-diazepam 1.5 nM; rat brain crude synaptosome membrane; 0° C., 20 min
pIC50: −log10 of the molar value.
property: pIC50

Solved cases (3 shown):
# smilesRecord, property, valueObserved
rows = [
    ("CCc1noc(-c2cc3c(-c4cccc(F)c4)nccc3[nH]c2=O)n1", "pIC50", 9.04),
    ("Cc1nccc2[nH]c(=O)c(-c3nc(C4CC4)no3)cc12", "pIC50", 8.19),
    ("CCc1nc(-c2cc3c(-c4cccc(C)c4)nccc3[nH]c2=O)no1", "pIC50", 8.79),
]

P. CCc1noc(-c2cc3c(-c4ccccc4F)nccc3[nH]c2=O)n1
Q. CCCCc1nccc2[nH]c(=O)c(-c3noc(CC)n3)cc12
R. CCCCCc1nccc2[nH]c(=O)c(-c3noc(CC)n3)cc12
QUERY: Would you mind ranking these molecules by ascending pIC50? Form entry: labels listed in requested order.
RESULT: Q, R, P
(Q: 8.20, R: 8.42, P: 8.81)

P. Cc1noc(-c2cc3c(-c4ccccc4F)nccc3[nH]c2=O)n1
Q. O=c1[nH]c2ccnc(C3CC3)c2cc1-c1noc(C2CC2)n1
R. Cc1ccc(-c2nccc3[nH]c(=O)c(-c4noc(C)n4)cc23)cc1
QUERY: Arrange these molecules by their pIC50, starting with the largest number. Form entry: labels listed in requested order.
RESULT: Q, P, R
